Each entry below carries its reported cAMP induction, % of PGE1.
Tested on: human washed platelets, cAMP competitive ELISA, 5 min
procedure summary: platelet cAMP elevation by compounds, confirmation, counter-screen for platelet activation inhibitor project, cell-based, competitive ELISA, PGE1 reference (AID 2645)
protocol conditions: at 10 µM; stronger effect = higher value

{"columns": ["sample smiles", "quantity unit", "cAMP induction, % of PGE1"],
 "data": [
  ["COc1ccccc1C(=O)Nc1c[nH]c(=O)[nH]c1=O", "%", 97.7],
  ["O=C(Nc1cccc(NC(=O)c2ccccc2Cl)c1)c1ccco1", "%", -18.7],
  ["COc1ccc(/C=N/N(C)c2cc(=O)n(C)c(=O)[nH]2)cc1OC", "%", 136],
  ["COc1cc2c(cc1OC)-c1cc(Nc3ccccc3C)nc(=O)n1CC2", "%", 638],
  ["COc1cc2c(cc1OC)-c1cc(N3CCCCCC3)nc(=O)n1CC2", "%", 83.7],
  ["COc1cc2c(cc1OC)-c1cc(Nc3ccc(F)cc3)nc(=O)n1CC2", "%", 210],
  ["CCC(CC)=N/N=C/c1c(O)n(CC)c2cc(C3=NNC(=O)CC3)ccc12", "%", 109],
  ["COc1cc2c(cc1OC)/C(=C/C(=O)c1ccc(NC(C)=O)cc1)NCC2", "%", 67.8],
  ["CCOc1cc(/C=N/NC(N)=O)cc(Br)c1OCC(=O)Nc1ccccc1C", "%", 155],
  ["COc1ccccc1-n1cc(-c2ccc(Cl)cc2)[nH]c1=O", "%", 32.2]
]}

---

System: human washed platelets, cAMP competitive ELISA, 5 min
procedure summary: platelet cAMP elevation by compounds, confirmation, counter-screen for platelet activation inhibitor project, cell-based, competitive ELISA, PGE1 reference (AID 2645)
protocol conditions: at 10 µM
Activity calls are given as the source filed them.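 Rule for the calls: active = cAMP rise above 50% of the positive control response, mean of two replicates; inactive = cAMP rise at or below 50% of control.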
Classes used: active, inactive

{"columns": ["sample smiles", "tested system", "assigned class"],
 "data": [
  ["COC(=O)CS(=O)(=O)c1ccc2c(c1)CC(=O)N2", "human washed platelets, cAMP competitive ELISA, 5 min", "active"],
  ["COc1cc2c(cc1OC)-c1cc(N3CCc4ccccc43)nc(=O)n1CC2", "human washed platelets, cAMP competitive ELISA, 5 min", "active"],
  ["O=c1[nH]c2c(s1)C=Nc1ccccc1N2", "human washed platelets, cAMP competitive ELISA, 5 min", "active"],
  ["C/C(=N/NC(=O)C1CCCC1)c1ccc(NC(=O)C(F)(F)F)cc1", "human washed platelets, cAMP competitive ELISA, 5 min", "inactive"],
  ["Cc1[nH]c(=O)c(C#N)c(C)c1CSc1ncccn1", "human washed platelets, cAMP competitive ELISA, 5 min", "active"],
  ["Cc1ccc(-n2c(N)c(C#N)c(-c3ccccc3)c(C#N)c2=O)cc1", "human washed platelets, cAMP competitive ELISA, 5 min", "inactive"]
]}
